# assayed-system: Glucose transporter (Leishmania mexicana)
# test-details: ST_JUDE_LEISH: Cytotoxicity at 2uM final concentration against transgenic Leishmania Mexicana promastigotes LmGT2 that are glucose transport deficient and complemented with the L. Mexicana glucose transporter 2. Activity is measured by DNA content using SYBR green in vitro
# Assay type: functional
reported-metric: inhibition (%)
Hi! Could you send only the number? It should be in %, unit omitted.

Q: What value of inhibition has been recorded for this entry: `O=C(CSc1nc(-c2ccccc2Cl)ns1)Nc1cccc(F)c1`
Result: 5.3

Q: How about `COc1ccc(NC(=O)c2cn(-c3ccc(C(C)(C)C)cc3)nc2C)cc1N1CCN(C)CC1` ?
Result: 1.64

Q: `CN(C)Cc1ccc(-c2cccc(NC(=O)c3cccc(Cl)c3)c2)cc1` ?
Result: 1.39

Q: Let us now turn to `COc1ccc(Cc2cnc(N)nc2N)cc1OCCCOc1ccccc1`
Result: -0.52

Q: Follow-up item: CCC(CC)CN1C(=O)C(C)(c2ccccc2)N=C1N (stereo unspecified)
Result: -1.23

Q: Try this molecule too: `CC1(C)NC(N)=NC(=N)N1OCCCOc1cc(Cl)ccc1Cl`
Result: 13.6

Q: Subsequent entry: `COc1cc2c(cc1OC)CN(c1cc(N)c3cc(OC)c(OC)cc3n1)CC2`
Result: -1.39

Q: Also need `O=C(CSc1nccn1C1CCCCC1)Nc1cc(C(F)(F)F)ccc1Cl` , thanks.
Result: 7.3

Q: And for `N#Cc1ccc(N2CCN(Cc3cccc(-c4ccc(-c5nc6cc(C(F)(F)F)ccc6[nH]5)cc4)c3)CC2)nc1` ?
Result: 0.17

Q: What do you get for `CC(=O)N1c2ccccc2C(C)=CC1(C)C` ?
Result: -1.02

Q: Entry `N[C@@H](COc1cccc2c(-c3ccncc3)c(-c3cccc(NC(=O)Nc4ccccc4)c3)nn12)c1ccccc1` please
Result: -2.62

Q: Now consider `CN(C)Cc1c(O)ccc2oc(Cc3ccccc3)cc12` .
Result: -0.96

Q: Now the same for `Cc1cccc2nc(-c3ccc(-c4ccc(CNCC(C)C)cc4)cc3)[nH]c12`
Result: 8.18

Q: Input CCCC(CNCc1ccc(Cl)c(C(F)(F)F)c1)CNc1nc2cnccc2[nH]1 (stereo unspecified)
Result: 8.76

Q: Also CN(Cc1cc(C(F)(F)F)cc(C(F)(F)F)c1)C(=O)C(Cc1ccc(F)cc1)C1CCCNC1 (stereo unspecified) , if possible.
Result: 6.9

Q: Please answer likewise for `CN(C)CCCn1cncc1-c1ccc2ncnc(Nc3ccc(OCc4ccccc4)cc3)c2c1`
Result: 7.01

Q: Okay, and `Cc1cc2c3c(N)nc(N)nc3ccc2n1C` ?
Result: 5.15

Q: Repeat for the following molecule: `COc1ccc(C=NNc2cc(C)nc3ccc(OC)cc23)c(OC)c1`
Result: 2.56

Q: Same for `Oc1ccc(-c2cncc(NCc3ccc(F)c(F)c3)c2)cc1`
Result: 7.98

Q: Input `Nc1cc2c(C3CCN(CC4CCN(C(=O)/C=C/c5ccc(Cl)c(Cl)c5)CC4)CC3)c[nH]c2cn1`
Result: -0.09

Q: Same question, `CC(=O)Oc1c(C2CCN(CCCCNC(=O)c3ccc(NC(=O)c4ccc(Cl)cc4)cc3)CC2)ccc2c1CCCC2` this time
Result: 3.9

====

# assayed-system: Hexose transporter 1 (Plasmodium falciparum) (UniProt O97467)
# test-details: ST_JUDE_LEISH: Cytotoxicity at 2uM final concentration against transgenic Leishmania Mexicana promastigotes LmPfHT that are glucose transport deficient and complemented with the Plasmodium falciparum hexose transporter. Activity is measured by DNA content using SYBR green in vitro
# Format: functional
Please respond with reported inhibition for every item in the list.
Field: numeric (%). Do not append units.

Q: Query the reported inhibition for Hexose transporter 1 (Plasmodium falciparum) (UniProt O97467); item: `CCCCCCN1CCC(NCc2cccc(C(F)(F)F)c2)CC1`
Result: 12.2

Q: Queued: `O=C(NC1CCN(Cc2cccc(C(F)(F)F)c2)CC1)c1ccc(-c2cccc(Cl)c2)s1`
Result: 2.49

Q: // next record `CS(=O)(=O)Nc1ccc(-c2cnc3[nH]cc(-c4ccc(C(=O)O)cc4)c3c2)cc1`
Result: 9.93

Q: Then `O=C(CSc1nc2ccc([N+](=O)[O-])cc2s1)Nc1ccccc1-c1ccccc1` ?
Result: -0.44

Q: Item: `O=C(NC1c2ccccc2Oc2ccccc21)c1ccccc1O`
Result: -0.11

Q: Another molecule: `Oc1cc2c(cc1CN1CCN(Cc3ccc(Cl)s3)CC1)CCC2`
Result: 4.66

Q: Then this molecule: COc1ccccc1NC(=O)OC(COc1ccc(N)cc1)CN1CC=C(c2ccccc2)CC1 (stereo not given)
Result: 0.25

Q: What about COc1ccc(-n2nc(C)c3c2NC(=O)CC3c2ccccc2OCc2ccccc2F)cc1 (stereo not given) ?
Result: 11.4

Q: Also `CC(=O)N(C)c1ccc(C(=O)Nc2cccc(-c3cccc(-c4nc5cc(C(F)(F)F)ccc5[nH]4)c3)c2)cc1` , if possible.
Result: 7.82

Q: For `COc1cc(Cc2cnc(N)nc2N)cc(OCCCCCCN2C(=O)c3ccccc3C2=O)c1OC` then?
Result: 4.53
